- Tested on: HCT116 MTAP-deleted cells
- METHOD DESCRIPTION: Cell viability assay (CellTiter-Glo, 7 days), HCT116 MTAP-deleted
- PROTOCOL CONDITIONS: Homo sapiens, HCT-116, 168 h
Items are presented alongside their recorded CC50.

Some entries whose results are on file:
# COMPOUND, CC50
measured = [
    ("CC(=O)N(C)N(Cc1sc2ccccc2c1Br)C(=O)c1ccc2nc(N)c3cnn(C)c3c2c1", "< 100 nM"),
    ("Cn1ncc2c(N)nc3ccc(C(=O)N(Cc4ccc(C(F)(F)F)cn4)N4CCC(C)(C)C4=O)cc3c21", "< 100 nM"),
    ("CC(=O)N(C)N(Cc1ccc(C#CC2CCCO2)cc1F)C(=O)c1ccc2nc(N)c3cnn(C)c3c2c1 (centres unmarked)", "< 100 nM"),
    ("[2H]C1([2H])C([2H])([2H])C1([2H])C(=O)N(C)N(Cc1ccc(C(F)(F)F)cn1)C(=O)c1ccc2nc(N)c3cnn(C)c3c2c1", "< 100 nM"),
    ("[2H]C([2H])([2H])N(C(=O)C1CC1)N(Cc1ncc(C(F)(F)F)cc1F)C(=O)c1ccc2nc(N)c3cnn(C([2H])([2H])[2H])c3c2c1", "< 100 nM"),
]

Ask: Identify measured CC50 associated with CC(=O)N(C)N(Cc1ccc(-c2cnn(C(F)(F)F)c2)cc1Cl)C(=O)c1ccc2nc(N)c3cnn(C)c3c2c1
Reply: < 100 nM

Ask: Input CN(C(=O)C1CC1)N(Cc1ccc(F)cc1F)C(=O)c1ccc2nc(N)c3cnn(C)c3c2c1 , output reported CC50.
Reply: < 100 nM

Ask: State its CC50 for this compound: COc1cc(C(F)(F)F)ccc1CN(C(=O)c1ccc2nc(N)c3cnn(C)c3c2c1)N1CCCCC1=O
Reply: < 100 nM

Ask: Provide measured CC50 value, entry: CN(C(=O)C1CC1)N(Cc1ccc(C(F)F)cc1F)C(=O)c1ccc2nc(N)c3cnn(C)c3c2c1
Reply: < 100 nM

Ask: Name the recorded CC50 of the compound listed here: CN(C(=O)C(C)(C)F)N(Cc1ccc(C(F)(F)F)cn1)C(=O)c1ccc2nc(N)c3cnn(C)c3c2c1
Reply: < 100 nM

Ask: Please give measured CC50 of the following entry: Cn1ncc2c(N)nc3ccc(C(=O)N(Cc4ccc(C(F)(F)F)cn4)N4CCOC5(CC5)C4)cc3c21
Reply: 100 to 1000 nM

Ask: Supply CC50 value. Item: CC(=O)N(C)N(Cc1ccc(C(F)(F)F)cn1)C(=O)c1ccc2nc(N)c3c(c2c1)CO[C@@H]3C
Reply: < 100 nM

Ask: Supply reported CC50 belonging to this compound: CN(C(=O)C12CC(C1)C2)N(Cc1ccc(Cl)cn1)C(=O)c1ccc2nc(N)c3cnn(C)c3c2c1
Reply: < 100 nM

Ask: Please give measured CC50 of the following entry: Cn1ncc2c(N)nc3ccc(C(=O)N(Cc4cn5cc(Cl)ccc5n4)N4CCCC4=O)cc3c21
Reply: < 100 nM

Ask: Dear colleague, please send me the reported CC50 for Cn1ncc2c(N)nc3ccc(C(=O)N(Cc4ccc(C(F)(F)F)cn4)N4CCC(F)(F)CC4)cc3c21 when you can.
Reply: < 100 nM

Ask: Answer with the recorded CC50 for the compound listed here: Cn1ncc2c(N)nc3ccc(C(=O)N(Cc4nc5ccccc5n4C)N4CCCC4=O)cc3c21
Reply: < 100 nM
